pIC50: −log10 of the molar value.
Let's go through some pIC50 measurements on SARS-CoV-2 3CL-protease (Severe acute respiratory syndrome coronavirus 2, UniProt P0DTD1) together.

Note to self: pIC50 recorded for CC(C)(C)C[C@H](NC(=O)c1ccc2ncc(C(F)(F)F)cc2c1)C(=O)N1C[C@]2(C[C@H]1C#N)C(=O)Nc1ccccc12 [Example 134] was 6.00 to 7.00

Note to self: pIC50 recorded for C[C@@H](C(=O)N(C)[C@@H](CC(C)(C)C)C(=O)N1C[C@]2(C[C@H]1C#N)C(=O)Nc1ccccc12)c1cnn(C)c1 [Example 372] was > 7.00

Note to self: pIC50 recorded for CN(C(=O)c1cc2cccnc2[nH]1)[C@@H](CC(C)(C)F)C(=O)N1C[C@]2(C[C@H]1C#N)C(=O)Nc1ccccc12 [Example 466] was > 7.00

* * *

pIC50: −log10 of the molar value.
Quantity name: pIC50

Entry CC(C)C[C@@H](C(=O)N1C[C@]2(C[C@H]1C#N)C(=O)Nc1ccccc12)N(C)C(=O)c1cccc2cnccc12 [Example 215] under SARS-CoV-2 3CL-protease (Severe acute respiratory syndrome coronavirus 2) had pIC50 of > 7.00

Entry CC(C)C[C@@H](C(=O)N1C[C@]2(C[C@H]1C#N)C(=O)Nc1ccccc12)N(C)C(=O)c1ccccc1-c1ccccc1 [Example 261] under SARS-CoV-2 3CL-protease (Severe acute respiratory syndrome coronavirus 2) had pIC50 of 6.00 to 7.00

Entry COc1ccc(CN(C(=O)C(F)(F)F)[C@@H](CC(C)C)C(=O)N2C[C@]3(C[C@H]2C#N)C(=O)Nc2ccccc23)cc1 [Example 429] under SARS-CoV-2 3CL-protease (Severe acute respiratory syndrome coronavirus 2) had pIC50 of < 6.00

* * *

# Target of assay: SARS-CoV-2 3CL-protease (Severe acute respiratory syndrome coronavirus 2)
# Assay protocol: SARS-CoV-2 3C-Like (3CL) Protease Fluorescence Assay (FRET)
# Assay type: biochemical
# Condition description: SARS-CoV-2 3CL-protease 10 nM, 30 min preincubation at RT, substrate 40 μM
pIC50: −log10 of the molar value.
What pIC50 was measured for each of the following?

Entry Cc1ccnc2[nH]c(C(=O)N(C)[C@@H](CC3CC3)C(=O)N3C[C@]4(C[C@H]3C#N)C(=O)Nc3ccc(Cl)cc34)cc12 under SARS-CoV-2 3CL-protease (Severe acute respiratory syndrome coronavirus 2) had pIC50 of > 7.00

Entry CC(C)C[C@@H](C(=O)N1C[C@]2(C[C@H]1C#N)C(=O)Nc1ccccc12)N(C)C(=O)c1ccc2ncc(C(F)(F)F)cc2c1 under SARS-CoV-2 3CL-protease (Severe acute respiratory syndrome coronavirus 2) had pIC50 of > 7.00

Entry CC(C)(F)C[C@H](NC(=O)c1cccc(OC(F)(F)F)c1)C(=O)N1C[C@]2(C[C@H]1C#N)C(=O)Nc1ccc(Cl)cc12 under SARS-CoV-2 3CL-protease (Severe acute respiratory syndrome coronavirus 2) had pIC50 of > 7.00

Entry CN(C(=O)c1cc2cccnc2[nH]1)[C@@H](CC1CC1)C(=O)N1C[C@]2(C[C@H]1C#N)C(=O)Nc1ccc(Cl)cc12 under SARS-CoV-2 3CL-protease (Severe acute respiratory syndrome coronavirus 2) had pIC50 of > 7.00

Entry CC(C)C[C@@H](C(=O)N1C[C@]2(C[C@H]1C#N)C(=O)Nc1ccccc12)N(C)C(=O)c1cn(C2CCC2)nn1 under SARS-CoV-2 3CL-protease (Severe acute respiratory syndrome coronavirus 2) had pIC50 of > 7.00

Entry CC(C)C[C@H](NC(=O)c1ccc(-c2ccccc2)[nH]1)C(=O)N1C[C@]2(C[C@H]1C#N)C(=O)Nc1ccccc12 under SARS-CoV-2 3CL-protease (Severe acute respiratory syndrome coronavirus 2) had pIC50 of < 6.00

Entry [2H]C([2H])([2H])N(C(=O)c1cn(-c2ccc(Cl)cc2)nn1)[C@@H](CC(C)(C)C)C(=O)N1C[C@]2(C[C@H]1C#N)C(=O)Nc1ccccc12 under SARS-CoV-2 3CL-protease (Severe acute respiratory syndrome coronavirus 2) had pIC50 of > 7.00

Entry CC(C)C[C@@H](C(=O)N1C[C@]2(C[C@H]1C#N)C(=O)Nc1ccc(C#C[Si](C)(C)C)cc12)N(C)C(=O)c1cc2c(F)cc(F)cc2[nH]1 under SARS-CoV-2 3CL-protease (Severe acute respiratory syndrome coronavirus 2) had pIC50 of > 7.00

Entry CC(C)C[C@@H](C(=O)N1C[C@]2(C[C@H]1C#N)C(=O)Nc1ccccc12)N(C)C(=O)c1ccc(Cl)cc1 under SARS-CoV-2 3CL-protease (Severe acute respiratory syndrome coronavirus 2) had pIC50 of 6.00 to 7.00

Entry Cc1ccc2cc(C(=O)N(C)[C@@H](CC(C)C)C(=O)N3C[C@]4(C[C@H]3C#N)C(=O)Nc3ccccc34)ccc2n1 under SARS-CoV-2 3CL-protease (Severe acute respiratory syndrome coronavirus 2) had pIC50 of > 7.00

* * *

# Target of assay: SARS-CoV-2 3CL-protease (Severe acute respiratory syndrome coronavirus 2)
# Assay protocol: SARS-CoV-2 3C-Like (3CL) Protease Fluorescence Assay (FRET)
# Type: biochemical
# Condition description: SARS-CoV-2 3CL-protease 10 nM, 30 min preincubation at RT, substrate 40 μM
pIC50: −log10 of the molar value.
Quantity name: pIC50

Note to self: pIC50 recorded for CC(C)C[C@@H](C(=O)N1C[C@]2(C[C@H]1C#N)C(=O)Nc1ccccc12)N(C)C(=O)c1cccc(N)n1 was 6.00 to 7.00

Note to self: pIC50 recorded for CN(C(=O)c1cn(-c2ccc(F)cc2)nn1)[C@@H](Cc1ccccc1)C(=O)N1C[C@]2(C[C@H]1C#N)C(=O)Nc1ccccc12 was > 7.00

Note to self: pIC50 recorded for CC(C)C[C@@H](C(=O)N1C[C@]2(C[C@H]1C#N)C(=O)Nc1ccccc12)N(C)C(=O)c1c(F)ccc2ccncc12 was > 7.00

Note to self: pIC50 recorded for CC(C)C[C@@H](C(=O)N1C[C@]2(C[C@H]1C#N)C(=O)Nc1ccccc12)N(C)C(=O)c1cc2cncnc2[nH]1 was > 7.00

Note to self: pIC50 recorded for CC(C)C[C@@H](C(=O)N1C[C@]2(C[C@H]1C#N)C(=O)Nc1ccccc12)N(C)C(=O)c1c(Cl)cc(Cl)cc1Cl was > 7.00

Note to self: pIC50 recorded for CC(C)C[C@@H](C(=O)N1C[C@]2(C[C@H]1C#N)C(=O)Nc1ccccc12)N(C)C(=O)c1cc2cccc(C(F)(F)F)c2[nH]1 was > 7.00

* * *

What IC50 was measured for each of the following?

Entry CC(C)C[C@@H](C(=O)N1C[C@]2(C[C@H]1C#N)C(=O)Nc1ccc(-c3cn(-c4ccccn4)nn3)cc12)N(C)C(=O)c1cc2c(F)cc(F)cc2[nH]1 under SARS-CoV-2 3CL-protease (Severe acute respiratory syndrome coronavirus 2, UniProt P0DTD1) had IC50 of < 100 nM

Entry CN(C(=O)[C@H](O)c1ccccc1Cl)[C@@H](CC1CC1)C(=O)N1C[C@]2(C[C@H]1C#N)C(=O)Nc1ccccc12 under SARS-CoV-2 3CL-protease (Severe acute respiratory syndrome coronavirus 2, UniProt P0DTD1) had IC50 of < 100 nM

Entry CC(C)C[C@@H](C(=O)N1C[C@]2(C[C@H]1C#N)C(=O)Nc1ccccc12)N(C)C(=O)c1cnc2ccccc2c1O under SARS-CoV-2 3CL-protease (Severe acute respiratory syndrome coronavirus 2, UniProt P0DTD1) had IC50 of 100 to 1000 nM

Entry C[C@H](C(=O)N(C)[C@@H](CC(C)(C)C)C(=O)N1C[C@]2(C[C@H]1C#N)C(=O)Nc1ccccc12)c1cnn(C)c1 under SARS-CoV-2 3CL-protease (Severe acute respiratory syndrome coronavirus 2, UniProt P0DTD1) had IC50 of < 100 nM

Entry CC(C)C[C@@H](C(=O)N1C[C@]2(C[C@H]1C#N)C(=O)Nc1ccccc12)N(C)C(=O)c1cn(-c2ccc(Cl)cc2)nn1 under SARS-CoV-2 3CL-protease (Severe acute respiratory syndrome coronavirus 2, UniProt P0DTD1) had IC50 of < 100 nM

Entry CC(=O)c1ccc2c(c1)[C@@]1(C[C@@H](C#N)N(C(=O)[C@H](CC(C)C)N(C)C(=O)c3cc4c(F)cc(F)cc4[nH]3)C1)C(=O)N2 under SARS-CoV-2 3CL-protease (Severe acute respiratory syndrome coronavirus 2, UniProt P0DTD1) had IC50 of < 100 nM

* * *

# Target of assay: SARS-CoV-2 3CL-protease (Severe acute respiratory syndrome coronavirus 2, UniProt P0DTD1)
pIC50: −log10 of the molar value.
What pIC50 was measured for each of the following?

Note to self: pIC50 recorded for Cc1cccc(C)c1NC(=O)N[C@@H](CC(C)(C)C)C(=O)N1C[C@]2(C[C@H]1C#N)C(=O)Nc1ccccc12 was 6.00 to 7.00

Note to self: pIC50 recorded for CC(C)C[C@@H](C(=O)N1C[C@]2(C[C@H]1C#N)C(=O)Nc1ccccc12)N(C)C(=O)N1Cc2cn[nH]c2C1 was 6.00 to 7.00

Note to self: pIC50 recorded for CC(C)C[C@@H](C(=O)N1C[C@]2(C[C@H]1C#N)C(=O)Nc1ccccc12)N(C)C(=O)C1(c2ccc3c(c2)OC(F)(F)O3)CC1 was > 7.00

Note to self: pIC50 recorded for Cc1cc(F)c(C(=O)N(C)[C@@H](CC(C)C)C(=O)N2C[C@]3(C[C@H]2C#N)C(=O)Nc2ccccc23)cc1-c1cnn(C2CC2)c1 was > 7.00

Note to self: pIC50 recorded for CC(C)(F)C[C@H](NC(=O)c1ccc(F)cc1F)C(=O)N1C[C@]2(C[C@H]1C#N)C(=O)Nc1ccc(Cl)cc12 was 6.00 to 7.00

Note to self: pIC50 recorded for CC(C)C[C@@H](C(=O)N1C[C@]2(C[C@H]1C#N)C(=O)Nc1ccccc12)N(C)C(=O)COc1ccccc1 was > 7.00

Note to self: pIC50 recorded for CC(C)C[C@@H](C(=O)N1C[C@]2(C[C@H]1C#N)C(=O)Nc1ccccc12)N(C)C(=O)c1nc2ccccc2n1C was 6.00 to 7.00

Note to self: pIC50 recorded for CC(C)C[C@@H](C(=O)N1C[C@]2(C[C@H]1C#N)C(=O)Nc1ccccc12)N(C)C(=O)[C@H](c1cnn(C)c1)C(C)C was > 7.00

Note to self: pIC50 recorded for CC(C)C[C@@H](C(=O)N1C[C@]2(C[C@H]1C#N)C(=O)Nc1ccccc12)N(C)C(=O)c1ccc2nccnc2c1 was 6.00 to 7.00

Note to self: pIC50 recorded for CC(C)C[C@@H](C(=O)N1C[C@]2(C[C@H]1C#N)C(=O)Nc1ccccc12)N(C)C(=O)c1cc(F)c2nc(C3CC3)c(C(=O)C(F)(F)F)n2c1 was 6.00 to 7.00

Note to self: pIC50 recorded for CC(C)(C)OC(=O)NC[C@H](NC(=O)c1cc2c(F)cc(F)cc2[nH]1)C(=O)N1C[C@]2(C[C@H]1C#N)C(=O)Nc1ccccc12 was < 6.00

Where do the numbers come from? From patent US12540141B2.
